All figures here come from patent US20250304563A1.

# assayed_system: Cbl-b (36-427 aa truncated form, N-terminus Avi-tag) (Homo sapiens (Human))
# procedure_details: Cbl-b binding: TR-FRET displacement of BODIPY-FL probe
parameter_measured: IC50

Recorded IC50, per entry:
# molecule, parameter_measured, result_value
records = [
    ("C[C@H]1CCCN(Cc2cc3c(c(C(F)(F)F)c2)CN(c2cc(C4(Cc5nncn5C)COC4)cc(N4CCN(C(=O)CCCN=[N+]=[N-])CC4)n2)C3=O)C1 [Compound 136]", "IC50", "5.01 to 20 nM"),
    ("CCSc1cc(C2(Cc3nncn3C)COC2)cc(N2Cc3c(NC)cc(CN4CCC[C@H](C)C4)cc3C2=O)n1.O=CO [Compound 130, formic acid]", "IC50", "5.01 to 20 nM"),
]

Inquiry: Read the entry Cn1cnnc1CC1(c2cc(NCCC#N)nc(N3Cc4c(cc(C=O)cc4C(F)(F)F)C3=O)c2)COC1 [Compound 157] and write its reported IC50.
Reply text: 20 to 100 nM

###

# assayed_system: Cbl-b (36-427 aa truncated form, N-terminus Avi-tag) (Homo sapiens (Human), UniProt Q13191)
# Sequence (Q13191 36-427): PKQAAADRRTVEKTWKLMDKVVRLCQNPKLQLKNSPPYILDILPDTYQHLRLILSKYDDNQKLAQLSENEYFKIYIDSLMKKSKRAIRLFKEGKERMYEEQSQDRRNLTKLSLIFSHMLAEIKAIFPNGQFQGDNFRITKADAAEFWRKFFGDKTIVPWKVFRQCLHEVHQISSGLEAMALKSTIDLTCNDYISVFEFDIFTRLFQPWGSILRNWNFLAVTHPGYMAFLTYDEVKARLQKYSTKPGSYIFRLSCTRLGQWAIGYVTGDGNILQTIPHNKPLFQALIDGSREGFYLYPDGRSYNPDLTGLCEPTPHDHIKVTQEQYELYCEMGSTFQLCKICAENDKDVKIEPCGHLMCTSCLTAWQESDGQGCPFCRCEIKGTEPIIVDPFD
# procedure_details: Cbl-b binding: TR-FRET displacement of BODIPY-FL probe
pIC50: −log10 of the molar value.
This section presents molecules with their documented pIC50 values.

Example entries and their recorded answers appear below.
# molecule, result_value
data = [
    ("C[C@H]1CCCN(Cc2cc3c(c(C(F)(F)F)c2)CN(c2cc(C4(Cc5nncn5C)COC4)cc(N4CCN(C(=O)Cc5nnn[nH]5)CC4)n2)C3=O)C1", "7.00 to 7.70"),
    ("Cc1cn(CCNc2cc(C3(Cc4nncn4C)COC3)cc(N3Cc4c(cc(CN5CCC[C@H](C)C5)cc4C(F)(F)F)C3=O)n2)nn1", "7.00 to 7.70"),
    ("CCSc1cc(C2(c3nncn3C)CC(C)C2)cc(N2Cc3c(cc(CN4CCC[C@H](C)C4)cc3C(F)(F)F)C2=O)n1 (stereo partly drawn) [Compound 112]", "7.00 to 7.70"),
    ("C[C@H]1CCCN(Cc2cc3c(c(C(F)(F)F)c2)CN(c2cc(C4(Cc5nncn5C)COC4)cc(SCC(O)CO)n2)C3=O)C1.O=CO (stereo partly drawn)", "7.00 to 7.70"),
    ("CCNc1cc(C2(Cc3nncn3C)COC2)cc(N2Cc3c(cc(CN4CCC[C@H](C)C4)cc3S(C)(=O)=O)C2=O)n1", "6.00 to 7.00"),
]

Would you kindly look at the next entry?
Inquiry: Report measured pIC50; entry is C[C@H]1CCCN(Cc2cc3c(c(C(F)(F)F)c2)CN(c2cc(C4(Cc5nncn5C)COC4)cc(NCc4c[nH]nn4)n2)C3=O)C1.O=C(O)C(F)(F)F
Reply text: 7.70 to 8.30

###

# assayed_system: Cbl-b (36-427 aa truncated form, N-terminus Avi-tag) (Homo sapiens (Human), UniProt Q13191)
# procedure_details: Cbl-b binding: TR-FRET displacement of BODIPY-FL probe
Listed compounds paired with reported IC50

Below, each entry is followed by its recorded IC50 result.
# compound, result_value
records = [
    ("CSC(C)(C)CNc1cc(C2(Cc3nncn3C)COC2)cc(N2Cc3c(cc(CN4CCC[C@H](C)C4)cc3C(F)(F)F)C2=O)n1 [Compound 105, formic acid]", "100 to 1000 nM"),
    ("CNCc1cc(C2(Cc3nncn3C)COC2)cc(N2Cc3c(cc(CN4CCC[C@H](C)C4)cc3C(F)(F)F)C2=O)n1 [Compound 104, trifluoroacetic acid]", "100 to 1000 nM"),
]

Inquiry: Using the record for CCNc1cc(C2(Cc3nncn3C)COC2)cc(N2Cc3c(cc([C@@H](CSC)N4CCC[C@H](C)C4)cc3C(F)(F)F)C2=O)n1 [Compound 141B] , state its measured IC50.
Reply text: 5.01 to 20 nM

Inquiry: Look up IC50 of CCNc1cc(C2(c3nncn3C)CC(C)C2)cc(N2Cc3c(cc(CN4CCC[C@H](C)C4)cc3C(F)(F)F)C2=O)n1 (stereo partly drawn) [Compound 171] and report it.
Reply text: 100 to 1000 nM

Inquiry: Find the measured IC50 of CSc1cc(CN2CCC[C@H](C)C2)cc2c1CN(c1cc(C3(Cc4nncn4C)COC3)cc(NCCC#N)n1)C2=O.O=C(O)C(F)(F)F [Compound 154, trifluoroacetic acid] and report it.
Reply text: 1 to 5 nM

Inquiry: Return IC50 for the following compound: C[C@H]1CCCN(Cc2cc3c(c(C(F)(F)F)c2)CN(c2cc(C4(Cc5nncn5C)COC4)cc(NCCS)n2)C3=O)C1 [Compound 108]
Reply text: 1 to 5 nM

###

# assayed_system: Cbl-b (36-427 aa truncated form, N-terminus Avi-tag) (Homo sapiens (Human), UniProt Q13191)
# procedure_details: Cbl-b binding: TR-FRET displacement of BODIPY-FL probe
Items are presented alongside their recorded IC50.

Inquiry: Give me measured IC50, please, for this compound: C#CCNc1cc(C2(Cc3nncn3C)COC2)cc(N2Cc3c(cc(CN4CCC[C@H](C)C4)cc3C(F)(F)F)C2=O)n1
Reply text: 100 to 1000 nM

Inquiry: Find the measured IC50 of CC#CC(=O)N1CCN(c2cc(C3(Cc4nncn4C)COC3)cc(N3Cc4c(cc(CN5CCC[C@H](C)C5)cc4C(F)(F)F)C3=O)n2)CC1 and report it.
Reply text: 5.01 to 20 nM

Inquiry: Supply IC50 value. Item: C=CC(=O)NCCNc1cc(C2(Cc3nncn3C)COC2)cc(N2Cc3c(cc(CN4CCC[C@H](C)C4)cc3C(F)(F)F)C2=O)n1
Reply text: 5.01 to 20 nM

###

Recorded IC50 by entry
# assayed_system: Cbl-b (36-427 aa truncated form, N-terminus Avi-tag) (Homo sapiens (Human))
# procedure_details: Cbl-b binding: TR-FRET displacement of BODIPY-FL probe

# compound, IC50
data = [
    ("C[C@H]1CCCN(Cc2cc3c(c(C(F)(F)F)c2)CN(c2cc(C4(Cc5nncn5C)COC4)cc(NCCN=[N+]=[N-])n2)C3=O)C1 [Compound 118]", "1 to 5 nM"),
]

Inquiry: Consider the compound C[C@H]1CCCN(Cc2cc3c(c(C(F)(F)F)c2)CN(c2cc(C4(Cc5nncn5C)COC4)cc(N4CCN(CC#N)CC4)n2)C3=O)C1 [Compound 128] . State its measured IC50.
Reply text: 20 to 100 nM

Inquiry: # return recorded IC50 for entry C[C@H]1CCCN(Cc2cc3c(c(C(F)(F)F)c2)CN(c2cc(C4(Cc5nncn5C)COC4)cc(NCCCC#N)n2)C3=O)C1 [Compound 143, trifluoroacetic acid]
Reply text: 1 to 5 nM

Inquiry: Give reported IC50 value for CCNc1cc([C@]2(c3nncn3C)C[C@H](C)C2)nc(N2Cc3c(cc(CN4CCC[C@H](C)C4)cc3C(F)(F)F)C2=O)n1 [Compound 114B]
Reply text: 100 to 1000 nM

Inquiry: Let me know recorded IC50 for CCSc1cc(C2(Cc3nncn3C)COC2)cc(N2Cc3c(C(C)=O)cc(CN4CCC[C@H](C)C4)cc3C2=O)n1 [Compound 159, trifluoroacetic acid] , thanks.
Reply text: 20 to 100 nM

Inquiry: Answer with the recorded IC50 of Cn1cnnc1CC1(c2cc(NCCC#N)nc(N3Cc4c(cc(CN5CCN(c6nccs6)CC5)cc4C(F)(F)F)C3=O)c2)COC1.O=C(O)C(F)(F)F [Compound 186, trifluoroacetic acid] only.
Reply text: 5.01 to 20 nM

Inquiry: Return IC50 (reported value) for this compound: Cn1cnnc1CC1(c2cc(NCCC#N)nc(N3Cc4c(cc(CN5CC[C@@H](CN6CCOCC6)C5)cc4C(F)(F)F)C3=O)c2)COC1 [Compound 165, trifluoroacetic acid]
Reply text: 5.01 to 20 nM

Inquiry: Quote IC50 reported for C[C@H]1CCCN(Cc2cc3c(c(C(F)(F)F)c2)CN(c2cc(C4(Cc5nncn5C)COC4)cc(N4CCNCC4)n2)C3=O)C1 [Compound 140] please.
Reply text: 5.01 to 20 nM

Inquiry: Tell us which IC50 value is on record for CC(C)C(C#N)Oc1cc(C2(Cc3nncn3C)COC2)cc(N2Cc3c(cc(CN4CCC[C@H](C)C4)cc3C(F)(F)F)C2=O)n1.O=CO (stereo partly drawn) [Compound 123, formic acid]
Reply text: 1 to 5 nM

Inquiry: # return recorded IC50 for input CSc1cc(CN2CCC[C@H](C)C2)cc2c1CN(c1cc(C3(Cc4nncn4C)COC3)cc(NCCN=[N+]=[N-])n1)C2=O [Compound 158, trifluoroacetic acid]
Reply text: 1 to 5 nM

Inquiry: State, in one line, measured IC50 of Cn1cnnc1CC1(c2cc(NCCC#N)nc(N3Cc4c(cc(CN5CCC(O)(C6CC6)CC5)cc4C(F)(F)F)C3=O)c2)COC1 [Compound 155]
Reply text: 1 to 5 nM

Inquiry: Give recorded IC50. CN1CCOC2(CCN(Cc3cc4c(c(C(F)(F)F)c3)CN(c3cc(C5(Cc6nncn6C)COC5)cc(NCCC#N)n3)C4=O)C2)C1 (stereo not drawn) [Compound 163]
Reply text: 5.01 to 20 nM
